Provenance of the data: patent US20210380703A1

Below, each entry is listed alongside its reported optical density.
Molecular target: mouse ACVR2A (mouse, UniProt P27038 20-135, limits assumed); note: test concentration or dose not given here
Sequence (P27038 20-135 limits assumed): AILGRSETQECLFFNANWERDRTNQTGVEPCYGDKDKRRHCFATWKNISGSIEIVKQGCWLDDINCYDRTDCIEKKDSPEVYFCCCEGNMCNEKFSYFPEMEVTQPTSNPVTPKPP
Assay: ELISA
Number only, in OD; omit the unit.

Request: Assign optical density to the following record: 369_G07 (antibody, V domains shown, VH/VL only) VH: EVQLLESGGGLVQPGGSLRLSCAASGFTFSSYSMNWVRQAPGKGLEWVAGINYNGGYTSYADSVKGRFTISRDNSKNTLYLQMNSLRAEDTAVYYCARSATWHDTHLDYWGQGTLVTVSS VL: DIQMTQSPSSLSASVGDRVTITCRASQSILTYVNWYQQKPGKAPKLVIYAATSRASGVPSRFSGSGSGTDFTLTISSLQPEDFATYYCQQSYDNPLTFGGGTKVEIK
Result: 3.37

Request: Identify measured optical density corresponding to 375_D07 (antibody, V domains shown, VH/VL only) VH: EVQLLESGGGLVQPGGSLRLSCAASGFTFSSYGMNWVRQAPGKGLEWVANINYNSGYTGYADSVKGRFTISRDNSKNTLYLQMNSLRAEDTAVYYCARSANWHDTALDYWGQGTLVTVSS VL: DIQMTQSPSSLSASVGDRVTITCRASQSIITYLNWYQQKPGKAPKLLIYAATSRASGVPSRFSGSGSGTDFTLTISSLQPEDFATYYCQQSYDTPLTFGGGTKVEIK
Result: 3.63

Request: Give the reported value of optical density for this record: 376_B01 (antibody, V domains shown, VH/VL only) VH: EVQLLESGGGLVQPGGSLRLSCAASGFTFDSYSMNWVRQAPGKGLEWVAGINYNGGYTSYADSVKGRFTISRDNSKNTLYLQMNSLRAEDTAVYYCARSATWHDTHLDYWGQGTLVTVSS VL: DIQMTQSPSSLSASVGDRVTITCRASQSILTYVNWYQQKPGKAPKLVIYAATSRASGVPSRFSGSGSGTDFTLTISSLQPEDFATYYCQQSYNLPLTFGGGTKVEIK
Result: 3.67

Request: Look up optical density of 369_B02 (antibody, V domains shown, VH/VL only) VH: EVQLLESGGGLVQPGGSLRLSCAASGFTFDSYSMNWVRQAPGKGLEWVSGINYNGGYKSYADSVKGRFTISRDNSKNTLYLQMNSLRAEDTAVYYCARSATWHDTHLDYWGQGTLVTVSS VL: DIQMTQSPSSLSASVGDRVTITCRASQSILSYLNWYQQKPGKAPKLVIYAATSRASGVPSRFSGSGSGTDFTLTISSLQPEDFATYYCQQSYNLPLTFGGGTKVEIK and report it.
Result: 3.55
